Tested on: K4 kissing-loop RNA reporter
Test: apparent KD of K4 kissing-loop reporter; higher = weaker reporter binding
Settings: Eterna round: R107; input ligand: FMN 200 uM
Reported apparent KD of K4 kissing-loop reporter values are given for each entry in this list.

# residues, experimental.system, result.units, apparent KD of K4 kissing-loop reporter
data = [
    ("CCAUCGCUAUUCGAUACCAGUCAAAAUAAAAUAAUAAAUCUGCAAAGGAGUGAUGUUCCAGACCCUUGGCAGCGAAUAGUGAUGG [Theophylline B K4 2]", "K4 kissing-loop RNA reporter", "nM", 746),
    ("AAGGGCUAGGCGGCCGCCACUGGUCGUGUACACAUACGAGCCAGUGAUGUUGGUAUUGUGUGCGGCAGGACCGGGCCUAGCCGAA [Exclusion - Tryptophan B (Freestyle 25)]", "K4 kissing-loop RNA reporter", "nM", 410),
    ("GGAUAGGACAGAGGAUAUGGUAGUGAUGUUACCAAACUGGUUACUCUUGUCAGAAAACUGGCAUUUCCAGAAGGCUGUCCUAUCG [KL-XFMN-B11]", "K4 kissing-loop RNA reporter", "nM", 599),
    ("AAUAUAUAGUGAAGGAGCGCGUAUUGCAGUGAUGUUGCUAAGUUAUUAUUAUCUAUUUUUACGCAGGUAGGUCGCACUAUAUAUA [JR_SSArginiB_Sub014]", "K4 kissing-loop RNA reporter", "nM", 213),
    ("UGUACCGAGUCAGGAUAUCAUAAAGUUGGAGUGAUGUUCCAAUAACGACUGACAAAGUCGGUCGAUUGAGAAGGGACUUGGUACU [FmnBS 9 #SwitchBubble #StaticStem]", "K4 kissing-loop RNA reporter", "nM", 160),
]

---

Test system: K4 kissing-loop RNA reporter;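 note: bound reporter read as fluorescence of individual clusters on recovered sequencing chips by microscopy, with normalized cluster intensities fitted with a binding model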
Test: apparent KD of K4 kissing-loop reporter; higher = weaker reporter binding
Details: Eterna round: R107; input ligand: tryptophan 2.4 mM
Reported apparent KD of K4 kissing-loop reporter values are given for each entry in this list.

# residues, experimental.system, result.units, apparent KD of K4 kissing-loop reporter
records = [
    ("GCGAACAUUCGCAGUGAUGUUGCGACGGAAGGAGCGCGUGAAAACGCAGGUAGGUCGCCGACAUACUUAAUUUUACAGUGUUCGC [Arginine A K4 29]", "K4 kissing-loop RNA reporter", "nM", 194),
    ("UGUGGAGGAUAUGAUACCAGCAGUGAGAGAGAGGAAGUAUAGUGAUGUUAUAUGAGAGAAUGCCCUUGGCAGCGUGUGUAGUAGG [SSTheophylB.J]", "K4 kissing-loop RNA reporter", "nM", 210),
    ("AAGUAGCUCUCGGCCGCCACUCCUCAGUGAUGUUGAGAUAUUAACUGCCAAUUGGCGUAUUUAAAGAGGACCGGGAGAGCUACAA [AK2 SS Tryptophan B]", "K4 kissing-loop RNA reporter", "nM", 129),
    ("AAGGGCUAGGCGGCCGCCACUUGUUGUGAACACAUACGAGCCAGUGAUGUUGGUAUUGUGUGCGGAAGGACCGGGCCUAGCCGAA [Exclusion - Tryptophan B (Freestyle 22)]", "K4 kissing-loop RNA reporter", "nM", 302),
    ("CCAUCGCUAUUCGAUACCAGUCAAAAUAAAAUAAUAAAUCUGCAAAGGAGUGAUGUUCCAGACCCUUGGCAGCGAAUAGUGAUGG [Theophylline B K4 2]", "K4 kissing-loop RNA reporter", "nM", 723),
    ("GCCGUACGCACGGAUACCAGCACUCGUUGAGUGAUGUUCACGGUGUGGUAUUCAACGGGCUGCCCUUGGCAGCCGUGCGUACGGC", "K4 kissing-loop RNA reporter", "nM", 144),
]
